Data origin, for the record: paper PMC8323099

# ASSAYED_TARGET: Pru p 1.0101 (Prunus persica)
# Sequence (Q2I6V8 1-160): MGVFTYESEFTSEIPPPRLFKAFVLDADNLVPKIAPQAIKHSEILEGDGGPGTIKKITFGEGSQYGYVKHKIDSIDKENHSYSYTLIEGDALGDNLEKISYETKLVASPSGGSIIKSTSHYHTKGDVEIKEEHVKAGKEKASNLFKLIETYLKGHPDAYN
MEASUREMENT_NAME: Kd

> print(dat)
                                   compound  measurement.name  observed
1  C/C(=C\CNc1ncnc2[nH]cnc12)CO [trans-zeatin]                Kd   1900 µM
